Hey, just so you know, these numbers are from ChEMBL document CHEMBL1128968.

Target: Stromelysin-1 (Homo sapiens)
Sequence (P08254 whole entry): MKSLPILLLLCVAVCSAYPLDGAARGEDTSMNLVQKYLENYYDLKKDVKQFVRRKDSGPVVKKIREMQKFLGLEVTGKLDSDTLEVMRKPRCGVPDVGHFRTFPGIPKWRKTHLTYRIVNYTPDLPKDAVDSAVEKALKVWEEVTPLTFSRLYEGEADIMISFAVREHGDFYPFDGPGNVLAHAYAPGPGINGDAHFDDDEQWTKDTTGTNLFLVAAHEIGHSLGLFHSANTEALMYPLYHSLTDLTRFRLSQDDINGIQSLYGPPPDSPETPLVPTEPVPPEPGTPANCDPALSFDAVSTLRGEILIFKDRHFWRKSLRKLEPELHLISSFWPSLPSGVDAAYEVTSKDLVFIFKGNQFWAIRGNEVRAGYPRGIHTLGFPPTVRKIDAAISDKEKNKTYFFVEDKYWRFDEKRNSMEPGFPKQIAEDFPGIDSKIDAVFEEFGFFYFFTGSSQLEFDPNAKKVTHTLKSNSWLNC
Experiment: Inhibition of stromelysin-1 (MMP-3).
pKi: −log10 of the molar value.
recordedMetric: pKi

Take a look at these entries with their results.
>  <smilesEntry>
CC(C)C[C@H](NC(=O)[C@H](CCc1ccccc1)CP(=O)(O)CCC(=O)Nc1ccccc1)C(=O)Nc1ccccc1

>  <measuredTarget>
Stromelysin-1 (Homo sapiens)

>  <resultValue>
6.33

$$$$
>  <smilesEntry>
COC(=O)NCCCCP(=O)(O)C[C@@H](CCc1ccccc1)C(=O)N[C@@H](CC(C)C)C(=O)Nc1ccccc1

>  <measuredTarget>
Stromelysin-1 (Homo sapiens)

>  <resultValue>
7.27

$$$$
>  <smilesEntry>
CC(C)C[C@H](NC(=O)[C@H](CCc1ccccc1)CP(C)(=O)O)C(=O)Nc1ccccc1

>  <measuredTarget>
Stromelysin-1 (Homo sapiens)

>  <resultValue>
5.82

$$$$
>  <smilesEntry>
CC(C)C[C@H](NC(=O)[C@H](CCc1ccccc1)CP(=O)(O)C/C=C/CN1C(=O)c2ccccc2C1=O)C(=O)Nc1ccccc1

>  <measuredTarget>
Stromelysin-1 (Homo sapiens)

>  <resultValue>
8.35

$$$$
>  <smilesEntry>
CC(C)C[C@H](NC(=O)[C@H](CCc1ccccc1)CP(=O)(O)CCCCNC(=O)Nc1ccccc1)C(=O)Nc1ccccc1

>  <measuredTarget>
Stromelysin-1 (Homo sapiens)

>  <resultValue>
7.15

$$$$

1 = CNC(=O)NCCCCP(=O)(O)C[C@@H](CCc1ccccc1)C(=O)N[C@@H](CC(C)C)C(=O)Nc1ccccc1
2 = CC(C)C[C@H](NC(=O)[C@H](CCc1ccccc1)CP(=O)(O)CCC(=O)NCCCc1ccccc1)C(=O)Nc1ccccc1
3 = COc1ccc(CC[C@H](CP(=O)(O)CCCCN2C(=O)c3ccccc3C2=O)C(=O)N[C@@H](CC(C)C)C(=O)Nc2ccccc2)cc1
Q: Sort these compounds on pKi so the largest reading comes first. Order the labels as requested and give them as your answer.
A: 3, 1, 2
(3: 8.64, 1: 6.89, 2: 6.17)

I = CC(C)C[C@H](NC(=O)[C@H](CCc1ccccc1)CP(=O)(O)CCCCNC(=O)OCc1ccccc1)C(=O)Nc1ccccc1
II = CC(C)C[C@H](NC(=O)[C@H](CCc1ccccc1)CP(=O)(O)CCCCNC(=O)Cc1ccccc1)C(=O)Nc1ccccc1
Q: // task: argmin of pKi over [ I , II ] Pick one; state its label.
A: I
(I: 7.20, II: 7.52)

A = CC(=O)N1CCC[C@H]1C(=O)NCCCCP(=O)(O)C[C@@H](CCc1ccccc1)C(=O)N[C@@H](CC(C)C)C(=O)Nc1ccccc1
B = CC(C)C[C@H](NC(=O)[C@H](CCc1ccccc1)CP(=O)(O)CCC(=O)NCCc1ccccc1)C(=O)Nc1ccccc1
C = COc1ccccc1CC[C@H](CP(=O)(O)CCCCN1C(=O)c2ccccc2C1=O)C(=O)N[C@@H](CC(C)C)C(=O)Nc1ccccc1
Q: Hi! Can you put these in order of pKi, lowest number first? Order the labels as requested and give them as your answer.
A: C, B, A
